System: C. neoformans
RUN_DESCRIPTION: In vitro antifungal activity, IC80 (Method B)
Format: cell-based
TEST_PARAMETERS: Cryptococcus neoformans, pH 7, C. neoformans CY1057, 1×10^4 cells/ml, 1-2 days, 27° C., read-out: Antifungal activity IC80
Counter-ions that a name gives are not always drawn.
Note to self: use criterion met only for IC80 readings below 1 µg/mL; a reading exactly at 1 µg/mL still gets criterion not met.

[Q] IC80 strictly < 1 µg/mL for this compound? CO[C@@H]1[C@@H](Cn2cncn2)[C@H](CCc2ccc(N(C)C)cc2)CCC1(C)C
[A] criterion not met

[Q] Just wondering, is IC80 of CO[C@@H]1[C@@H](Cn2cncn2)[C@H](CCc2ccc(Cl)cc2)CCC1(C)C below 1 µg/mL?
[A] criterion not met

[Q] Input CCc1ccc(CC[C@@H]2CCC(C)(C)[C@H](OC)[C@H]2Cn2cncn2)cc1 ; condition: IC80 strictly below 1 µg/mL. Does it hold?
[A] criterion not met

[Q] Decide: IC80 of CO[C@@H]1[C@@H](Cn2cncn2)[C@H](CCc2ccc(C(F)(F)F)cc2)CCC1(C)C strictly below 1 µg/mL?
[A] criterion met

[Q] Does this compound meet the criterion IC80 < 1 µg/mL? CO[C@@H]1[C@@H](Cn2cncn2)[C@H](CCc2ccc(OC(F)(F)F)cc2)CCC1(C)C
[A] criterion not met

[Q] Just wondering, is IC80 of COc1ccc(CC[C@@H]2CCC(C)(C)[C@H](OC)[C@H]2Cn2cncn2)cc1 below 1 µg/mL?
[A] criterion met

[Q] Identify whether the compound CO[C@@H]1[C@@H](Cn2cncn2)[C@H](CCc2ccc(N3CCCC3)cc2)CCC1(C)C records IC80 below 1 µg/mL.
[A] criterion not met

[Q] Hi there! Is IC80 for COc1ccc(CC[C@@H]2CCC(C)(C)[C@H](OC)[C@H]2NC(=O)CN)cc1 [Example 55, trifluoroacetic acid salt] below 1 µg/mL, do you know?
[A] criterion not met

[Q] hey, is IC80 for CCCCCCCCO[C@@H]1CCC(C)(C)[C@H](OC)[C@H]1NC(=O)CN [Example 54, trifluoroacetic acid salt] lower than 1 µg/mL or not?
[A] criterion not met

[Q] Lab note: IC80 threshold 1 µg/mL. Does this compound come in strictly under it? CO[C@@H]1[C@@H](Cn2cncn2)[C@H](CCc2ccc3ccccc3c2)CCC1(C)C
[A] criterion met

[Q] is_below(IC80, 1 µg/mL) for CO[C@@H]1[C@@H](Cn2cncn2)[C@H](CSc2ccc(Cl)cc2)CCC1(C)C ?
[A] criterion not met

[Q] Does the reported IC80 of the following compound sit strictly below 1 µg/mL? CCc1ccc(OC[C@@H]2CCC(C)(C)[C@H](OC)[C@H]2Cn2cncn2)cc1
[A] criterion met

[Q] Quick check: IC80 of CO[C@@H]1[C@@H](Cn2cncn2)[C@H](CCc2ccc(C)cc2)CCC1(C)C under 1 µg/mL?
[A] criterion met

[Q] # check: IC80 < 1 µg/mL for CO[C@@H]1[C@@H](Cn2cncn2)[C@H](CCc2ccc3ccccc3n2)CCC1(C)C
[A] criterion not met

[Q] Lab log: compare recorded IC80 with 1 µg/mL; is it strictly lower for CO[C@@H]1[C@@H](Cn2cncn2)[C@H](CCc2ccc(F)cc2F)CCC1(C)C ?
[A] criterion not met
